tested on: EKVX; experiment: NCI tumour cell line growth inhibition, 48 h
Activity calls are given as the source filed them. Rule as the data show it: active = GI50 up to about 1.1 µM and inactive = higher.
Recorded measurements of GI50, one per entry
Observed Property: GI50

[[record]]
compound = "Cc1cn2c(=O)c3ncn(C4OC(CO)C(O)C4O)c3n(C)c2n1 (stereo unspecified)"
observed_property = "GI50"
result = "> 100 µM (inactive)"

[[record]]
compound = "COC(=O)c1c2c(cc3c1CC1(Cc4cc5c(cc4C1=O)CCC5)C3)CCC2 (stereo unspecified)"
observed_property = "GI50"
result = "56.1 µM (inactive)"

[[record]]
compound = "O=C1/C(=C/c2ccccc2)CN(C(=O)C(F)(F)F)C/C1=C\\c1ccccc1"
observed_property = "GI50"
result = "> 10 µM (inactive)"

[[record]]
compound = "O=C1c2ccccc2C(=O)c2sc(Nc3cccc(Cl)c3)nc21"
observed_property = "GI50"
result = "2.38 µM (inactive)"

[[record]]
compound = "CN(C)CCN(/C(=N/c1ccccc1)N1CCCC1)c1ccccc1"
observed_property = "GI50"
result = "> 100 µM (inactive)"

[[record]]
compound = "C/C(=C\\c1ccccc1)C(=O)NCc1ccc(C(=O)NCCC(C)C)cc1"
observed_property = "GI50"
result = "76.4 µM (inactive)"


----------
Recorded measurements of GI50, one per entry
test system: UO-31; experiment: NCI tumour cell line growth inhibition, 48 h
Calls of active or inactive are those of the source. Rule as the data show it: active = GI50 up to about 1.1 µM and inactive = higher. Where a SMILES comes first, the peptide text is derived from it. [ ]: non-standard residue; d: D form. The star is where a group is joined. NMeF = CN[CH](Cc1ccccc1)C(=O)O; NMeV = CN[CH](C(=O)O)C(C)C; Boc = CC(C)(C)OC(=O)*; OBn = c1ccc(CO*)cc1
Observed Property: GI50

[[record]]
molecule = "CN1CCC/C1=C1/C(=O)N(c2ccccc2)N=C1c1ccc[nH]1"
result = "> 100 µM (inactive)"

[[record]]
molecule = "COc1cc(/C=C\\c2ccc(C)cc2)cc(OC)c1OC"
result = "0.12 µM (active)"

[[record]]
molecule = "CSc1sc(=S)sc1SC"
result = "> 100 µM (inactive)"

[[record]]
molecule = "COc1ccc(NC(=O)CC2SC(Nc3ccc(Cl)cc3C)=NC2=O)c([N+](=O)[O-])c1 (stereo unspecified)"
result = "> 100 µM (inactive)"

[[record]]
molecule = "O=c1ncccn1C1OC(CO)C(O)C1O (stereo unspecified)"
result = "> 100 µM (inactive)"

[[record]]
molecule = "Cc1ccc(Nc2cc(=O)[nH]c(=S)[nH]2)cc1"
result = "> 100 µM (inactive)"

[[record]]
molecule = "C/C(=N\\N=C(\\N)SB(F)F)c1ccc2ccccc2c1"
result = "> 100 µM (inactive)"

[[record]]
molecule = "Cc1cccc(-c2cccc(COCc3cccc(-c4cccc(CO)n4)n3)n2)n1"
result = "> 50 µM (inactive)"

[[record]]
molecule = "CN(C)C(=O)C(F)(F)C(c1ccc(C(F)(F)F)cc1)C1C(=O)N(C)C(=O)N(C)C1=O (stereo unspecified)"
result = "> 100 µM (inactive)"

[[record]]
molecule = "CCCC(=O)Nc1ccc2c(c1)CN1C(=O)c3ccccc3C1=N2"
result = "> 100 µM (inactive)"

[[record]]
molecule = "O=C1c2ccccc2C(=O)C1(Cl)C1(S(=O)(=O)O)c2ccccc2-c2ccccc21"
result = "> 100 µM (inactive)"

[[record]]
molecule = "O=C(O)c1ccc(C2C3C=CC(C3)C2[N+](=O)[O-])cc1 (stereo unspecified)"
result = "> 100 µM (inactive)"

[[record]]
molecule = "O=C(O)CN(c1ccccc1)S(=O)(=O)c1cccc([N+](=O)[O-])c1"
result = "> 100 µM (inactive)"

[[record]]
molecule = "O=S(O)CCCCCSSc1ccc(Cl)cc1"
result = "12.9 µM (inactive)"

[[record]]
molecule = "COc1c(C)cc(O)cc1C=O"
result = "> 100 µM (inactive)"

[[record]]
molecule = "COc1ccc2nc3ccc(OC)cc3c(SCc3ccc([N+](=O)[O-])cc3)c2c1"
result = "> 100 µM (inactive)"

[[record]]
molecule = "CCC1OC(=O)C(C)C(OC2CC(C)(O)C(O)C(C)O2)C(C)C(O)C(C)(O)CC(C)C(=O)C(C)C(O)C1C (stereo unspecified)"
result = "> 300 µM (inactive)"

[[record]]
molecule = "Cc1cc2c3ccccc3[nH]c2c2ccnc(C)c12"
result = "14.2 µM (inactive)"

[[record]]
molecule = "CC(C)C(NC(=O)OC(C)(C)C)C(=O)N(C)C(Cc1ccccc1)C(=O)N(C)C(C(=O)N(C)C(C(=O)OCc1ccccc1)C(C)C)C(C)C (stereo unspecified) (Boc-V[NMeF][NMeV][NMeV]-OBn; configuration not given here)"
result = "> 100 µM (inactive)"

[[record]]
molecule = "O=C1CSC2(CCN(CCCN3c4ccccc4Sc4ccc(Cl)cc43)CC2)N1"
result = "6.75 µM (inactive)"

[[record]]
molecule = "CC(C)OP(=O)(OC(C)C)/C(=N/Nc1ccccc1[N+](=O)[O-])NCCN/C(=N\\Nc1ccccc1[N+](=O)[O-])P(=O)(OC(C)C)OC(C)C"
result = "29.3 µM (inactive)"


----------
tested on: KM12; assay: NCI tumour cell line growth inhibition, 48 h
Active and inactive are the calls of the source. Rule as the data show it: active = GI50 up to about 1.1 µM and inactive = higher.
Observed Property: GI50

[[record]]
compound = "CCOC(=O)C12CC(C)=C(C)CC1CCCc1ccccc12 (stereo not given)"
observed_property = "GI50"
result = "29.6 µM (inactive)"

[[record]]
compound = "COC(=O)c1c2c(cc3c1CC1(Cc4cc5c(cc4C1=O)CCC5)C3)CCC2 (stereo not given)"
observed_property = "GI50"
result = "38.7 µM (inactive)"

[[record]]
compound = "N#CCCN(CCC#N)c1ccc(/C=C2\\N=C(c3ccccc3)N(c3ccccn3)C2=O)cc1"
observed_property = "GI50"
result = "> 100 µM (inactive)"

[[record]]
compound = "C/C(=N\\N=C(\\N)SB(F)F)c1ccc2ccccc2c1"
observed_property = "GI50"
result = "> 100 µM (inactive)"

[[record]]
compound = "COc1ccc(/N=C(/SS/C(=N/c2ccc(OC)cc2)c2ccc([N+](=O)[O-])o2)c2ccc([N+](=O)[O-])o2)cc1"
observed_property = "GI50"
result = "1.14 µM (inactive)"

[[record]]
compound = "Cc1ccc2c(n1)C(=O)c1ccccc1C2=O"
observed_property = "GI50"
result = "30.1 µM (inactive)"

[[record]]
compound = "ON=C(CC(O)(C(F)(F)Cl)C(F)(F)Cl)CC(O)(C(F)(F)Cl)C(F)(F)Cl"
observed_property = "GI50"
result = "8.38 µM (inactive)"

[[record]]
compound = "O=C1c2ccccc2-n2c1nc1ccc(Cl)cc1c2=O"
observed_property = "GI50"
result = "> 100 µM (inactive)"

[[record]]
compound = "NP1(Oc2ccc(F)cc2)=NP(N)(Oc2ccc(F)cc2)=NP(Oc2ccc(F)cc2)(Oc2ccc(F)cc2)=N1 (stereo not given)"
observed_property = "GI50"
result = "4.19 µM (inactive)"

[[record]]
compound = "O=C(O)c1ccc(C2C3C=CC(C3)C2[N+](=O)[O-])cc1 (stereo not given)"
observed_property = "GI50"
result = "> 100 µM (inactive)"


----------
test system: CCRF-CEM; assay: NCI tumour cell line growth inhibition, 48 h
Active and inactive are the calls of the source. Cut-off read from the data, not from the text of the source: active = GI50 up to about 1.1 µM and inactive = higher.
Recorded measurements of GI50, one per entry
Observed Property: GI50

[[record]]
compound = "COC1=C2C[C@H](O)C(C)C[C@@]2(OC)OC1=O (some centres not stated)"
observed_property = "GI50"
result = "> 100 µM (inactive)"

[[record]]
compound = "Cc1c2c(cc3c1C(=O)C(O)=C([C@@H](C)CO)C3=O)C(C)(C)CCC2"
observed_property = "GI50"
result = "10.1 µM (inactive)"

[[record]]
compound = "Nc1nc(Cl)cc(Nc2ccc3c(c2)CCC3)n1"
observed_property = "GI50"
result = "44.3 µM (inactive)"

[[record]]
compound = "Cc1c2n(c(=O)[nH]c1=O)C1OC(CO)C(O2)C1N=[N+]=[N-] (configuration not stated)"
observed_property = "GI50"
result = "> 100 µM (inactive)"

[[record]]
compound = "CCCCCCCCOCC(COC(=O)CCCCCCC)OC(=O)CCCCCCC (configuration not stated)"
observed_property = "GI50"
result = "57 µM (inactive)"

[[record]]
compound = "COc1cc(NC(C)=O)ccc1C(=O)NN1C(=O)/C(=C/c2ccco2)N=C1c1ccccc1"
observed_property = "GI50"
result = "12.5 µM (inactive)"

[[record]]
compound = "CC(=O)O[C@]12CCCC1C1(O)C(O)CCCC12 (some centres not stated)"
observed_property = "GI50"
result = "> 100 µM (inactive)"

[[record]]
compound = "CN(C)CCN(/C(=N/c1ccccc1)N1CCCC1)c1ccccc1"
observed_property = "GI50"
result = "8.69 µM (inactive)"

[[record]]
compound = "CC(C)(C)[Si](C)(C)OCC1OC(n2cnc3c(=O)[nH]cnc32)CC1O (configuration not stated)"
observed_property = "GI50"
result = "> 100 µM (inactive)"

[[record]]
compound = "CCOC(=O)c1c(NC(=O)c2ccc(Br)cc2)sc2c1CCCC2"
observed_property = "GI50"
result = "> 100 µM (inactive)"

[[record]]
compound = "O=C(O)Cn1ccc(=O)c2cc([N+](=O)[O-])ccc21"
observed_property = "GI50"
result = "> 100 µM (inactive)"

[[record]]
compound = "ON=C(CC(O)(C(F)(F)Cl)C(F)(F)Cl)CC(O)(C(F)(F)Cl)C(F)(F)Cl"
observed_property = "GI50"
result = "5.56 µM (inactive)"

[[record]]
compound = "COc1ccc(N2C(=O)C3c4[nH]c5cc(C)ccc5c4C4CCC(C(C)(C)C)CC4C3C2=O)cc1 (configuration not stated)"
observed_property = "GI50"
result = "> 10 µM (inactive)"

[[record]]
compound = "O=c1[nH]c2cc([N+](=O)[O-])c(N(CCO)CCO)c([N+](=O)[O-])c2[nH]1"
observed_property = "GI50"
result = "44.7 µM (inactive)"

[[record]]
compound = "CC(=C/C=C/C=C(C)\\C=C\\C=C(\\C)C(=O)O)/C=C/C=C(/C)C(=O)O"
observed_property = "GI50"
result = "> 100 µM (inactive)"

[[record]]
compound = "O=C1c2cccc3cc4ccccc4c(c23)C(=O)N1CCNCCN1C(=O)c2cccc3cc4ccccc4c(c23)C1=O"
observed_property = "GI50"
result = "0.199 µM (active)"

[[record]]
compound = "CCC1(O)CC2CC(=O)OC2C1O (configuration not stated)"
observed_property = "GI50"
result = "0.423 µM (active)"

[[record]]
compound = "O=C(c1ccccc1)N1CCN2CCN=C(c3ccccc3)C21c1ccccc1 (configuration not stated)"
observed_property = "GI50"
result = "61.9 µM (inactive)"

[[record]]
compound = "CCC1(CC)C(=O)NC(=O)NC1=S"
observed_property = "GI50"
result = "> 100 µM (inactive)"

[[record]]
compound = "CCCCCC(=O)OC[n+]1ccc(-c2c(COC(=O)NC(C)C)c(COC(=O)NC(C)C)c3n2CCC3)cc1"
observed_property = "GI50"
result = "43.2 µM (inactive)"

[[record]]
compound = "CCCNc1ncnc2c1cnn2C"
observed_property = "GI50"
result = "> 100 µM (inactive)"

[[record]]
compound = "O=C(O)c1cc(CCc2cc(O)ccc2O)ccc1O"
observed_property = "GI50"
result = "26.9 µM (inactive)"


Where do the numbers come from? From ChEMBL document CHEMBL1201862.
